meta.source: patent US20130058934A1

Molecular target: T1, LRP6-Fc (R&D Systems, catalog No: 1505-LR) (human, UniProt O75581 20-1370)
T1 construct: Purchased reagent; also called LRP6 protein; 360 KD homodimer antigen LRP6-Fc; not shown: Fc part of the purchased fusion
T1 sequence (looked up): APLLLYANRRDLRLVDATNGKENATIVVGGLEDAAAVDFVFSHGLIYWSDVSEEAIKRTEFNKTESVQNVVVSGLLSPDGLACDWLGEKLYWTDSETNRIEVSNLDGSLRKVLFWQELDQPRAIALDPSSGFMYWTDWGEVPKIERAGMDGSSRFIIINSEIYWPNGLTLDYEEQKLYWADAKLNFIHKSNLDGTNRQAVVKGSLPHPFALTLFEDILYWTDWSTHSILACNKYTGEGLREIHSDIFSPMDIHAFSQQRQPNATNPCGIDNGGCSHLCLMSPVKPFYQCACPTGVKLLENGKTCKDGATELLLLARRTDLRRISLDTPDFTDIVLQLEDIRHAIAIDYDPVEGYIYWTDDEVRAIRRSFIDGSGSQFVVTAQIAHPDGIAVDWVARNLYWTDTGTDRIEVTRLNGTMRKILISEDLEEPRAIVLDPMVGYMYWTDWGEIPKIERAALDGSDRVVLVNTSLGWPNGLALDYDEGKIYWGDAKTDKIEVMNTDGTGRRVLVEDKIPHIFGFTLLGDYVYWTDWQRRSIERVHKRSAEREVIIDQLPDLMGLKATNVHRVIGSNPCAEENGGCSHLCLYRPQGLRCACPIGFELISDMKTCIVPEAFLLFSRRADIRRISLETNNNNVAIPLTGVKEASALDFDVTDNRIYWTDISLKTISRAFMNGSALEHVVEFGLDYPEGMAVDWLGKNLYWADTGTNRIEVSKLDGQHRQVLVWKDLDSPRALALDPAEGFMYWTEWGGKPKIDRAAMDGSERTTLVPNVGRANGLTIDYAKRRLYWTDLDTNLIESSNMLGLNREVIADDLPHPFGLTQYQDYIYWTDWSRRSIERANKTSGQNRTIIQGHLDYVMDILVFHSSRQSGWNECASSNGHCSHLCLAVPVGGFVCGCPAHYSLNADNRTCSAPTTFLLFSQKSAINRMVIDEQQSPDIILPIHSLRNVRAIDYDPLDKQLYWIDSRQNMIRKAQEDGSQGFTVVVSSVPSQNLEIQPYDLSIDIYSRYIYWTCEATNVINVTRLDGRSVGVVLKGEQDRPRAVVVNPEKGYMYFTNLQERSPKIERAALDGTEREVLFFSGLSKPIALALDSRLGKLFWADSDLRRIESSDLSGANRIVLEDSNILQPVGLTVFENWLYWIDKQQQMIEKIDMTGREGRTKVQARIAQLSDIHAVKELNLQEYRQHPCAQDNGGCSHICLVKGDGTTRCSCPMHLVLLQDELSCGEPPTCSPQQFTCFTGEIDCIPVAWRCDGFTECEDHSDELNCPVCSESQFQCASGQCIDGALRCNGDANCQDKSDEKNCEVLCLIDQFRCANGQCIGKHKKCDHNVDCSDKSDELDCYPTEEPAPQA
Test: ELISA on coated LRP6-Fc, detection with pentaHis-HRP
Property Name: pEC50
Numbers only, as −log10 of the molar value.

[in] What pEC50 value was documented for this binder, scFv08168 VH:I34M (scFv, V domains shown, Point mutant of scFv08168 (His tag)) VH: QVQLVESGGGLVQPGGSLRLSCAASGFTFSDYVMNWVRQAPGKGLEWVSGISWSGVNTHYADSVKGRFTISRDNSKNTLYLQMNSLRAEDTAVYYCARLGATANNIRYKFMDVWGQGTLVTVSS VL: DIELTQPPSVSVAPGQTARISCSGDSLRNKVYWYQQKPGQAPVLVIYKNNRPSGIPERFSGSNSGNTATLTISGTQAEDEADYYCQSYDGQKSLVFGGGTKLTVL ?
[out] 9.01
